system: K562; test: NCI tumour cell line growth inhibition, 48 h
Activity calls are given as the source filed them. Rule as the data show it: active = GI50 up to about 1.1 µM and inactive = higher.
Outcomes: active, inactive

>>> category("N=C(N)N/N=C/c1c(Cl)nc2n1CCS2")
"inactive"
>>> category("O=C(CCCl)NN=C1NCCCCN1")
"inactive"
>>> category("Cc1nn2c3c(nnc2c1C#N)C(=O)NN=C(N)S3")
"inactive"
>>> category("CCO[C@@H]1C2C=CC(C2)[C@H]1[N+](=O)[O-] (some centres undefined)")
"inactive"
>>> category("Clc1ccc(-c2nnc(-c3c(Cl)c(Cl)c(Cl)c(Cl)c3-c3nc4ccccc4[nH]3)o2)cc1")
"inactive"
>>> category("COC(=O)c1ccccc1/C=C1\\Cc2c(ccc3c2CCC3)C1=O")
"inactive"
>>> category("Oc1cc(-c2cccc(OC(F)(F)F)c2)nc2ccc(N3CCCC3)cc12")
"active"
>>> category("COC(=O)C1=C(C)NC(C)=C(C(=O)OC)C1c1ccc(NO)cc1")
"inactive"
>>> category("O=[N+]([O-])c1ccc2c(c1)nc1n2C(c2c(F)cccc2F)SC1 (centres undefined)")
"inactive"
>>> category("C=CCCCC12CCCc3cccc(c31)NC2=O (centres undefined)")
"inactive"
>>> category("O=C1CSC2=NCC3(NN12)c1ccccc1-c1ccccc13")
"inactive"
>>> category("O=CCCCC(Sc1ccccc1)Sc1ccccc1")
"inactive"
>>> category("CC1=C(/C=C/C(C)=C/C=C/C(C)=C/C=C/C=C(C)/C=C/C=C(C)/C=C/C2=C(C)C(=O)C(O)CC2(C)C)C(C)(C)CC(O)C1=O (centres undefined)")
"inactive"
>>> category("COC1=CC(=O)c2c(c(O)c3oc4cc(OC)cc(C)c4c(=O)c3c2O)C1=O")
"active"
>>> category("O=C(NCCNCCO)c1cccc2ccc(-c3ccccc3)nc12")
"inactive"
>>> category("CCCCc1c2c([n+]([O-])c3c1CCCC3)CCCC2")
"inactive"
>>> category("Cc1c2c(n(CCc3ccccc3)c1C)NN=C(C#N)S2(=O)=O")
"inactive"
>>> category("CCN(CC)c1ccc(/C=c2\\nc(-c3ccccc3)n3c2nc2ccccc23)cc1")
"inactive"
>>> category("CC1(C)OC(=O)C(=C2CCC(C(=O)Nc3cccc(C(F)(F)F)c3)N2)C(=O)O1 (centres undefined)")
"inactive"
>>> category("C=C(c1nc2ccc(Cl)cc2[nH]c1=O)C(O)c1ccc(C(O)C(=O)c2nc3ccc(Cl)cc3[nH]c2=O)cc1 (centres undefined)")
"inactive"
>>> category("COc1ccc(N2C(=O)C3CC(c4ccc(Br)cc4)c4c([nH]c5ccccc45)C3C2=O)cc1 (centres undefined)")
"inactive"
>>> category("CCOC(=O)c1cn(-c2ccc(Cl)cc2)c(=O)n2c1nc1ccccc12")
"inactive"
>>> category("COC(CNC(=O)C(C)NC(=O)CCc1ccccc1)OC (centres undefined)")
"inactive"
>>> category("O=C(CSc1nnc(-c2ccc(/N=C\\c3ccc(Cl)cc3)cc2)o1)Nc1ccccc1[N+](=O)[O-]")
"inactive"
>>> category("C[C@@]1(O)CC[C@]2(C)C3CCCC3[C@H]12 (some centres undefined)")
"inactive"
>>> category("CSc1nc(=O)c2nc(-c3cccs3)c(-c3cccs3)nc2n1C")
"inactive"
>>> category("COc1ccc2nc3ccccc3c(NCCN(C)CCCl)c2c1")
"active"
>>> category("CC(C)(CN1CCCCC1)C(=O)/C=C/c1ccc(/C=C/C(=O)C(C)(C)CN2CCCCC2)cc1")
"active"
>>> category("Cn1c2ccccc2n2c(N=O)c(-c3ccccc3)nc12")
"inactive"
>>> category("CCOC(=O)c1cc2c3c(c(C(C)=O)c(OC)c2[nH]1)N(C(=O)CC)CC3")
"inactive"
>>> category("COc1ccc(/C=N/N=C(\\N)NO)cc1F")
"inactive"
>>> category("CCCN1CCC(=O)N(CCC(F)(F)C(F)(F)C(F)(F)C(F)(F)C(F)(F)C(F)(F)F)C1=S")
"inactive"
>>> category("N=C1N=C(N)c2cc3c(cc21)SCCSCCCSCCS3")
"inactive"
>>> category("COc1c(-c2ccc3c(c2)OCO3)oc2cc(O)cc(O)c2c1=O")
"inactive"
